Target: human CB2 receptor (Homo sapiens (Human), UniProt P34972)
Sequence (P34972 whole entry): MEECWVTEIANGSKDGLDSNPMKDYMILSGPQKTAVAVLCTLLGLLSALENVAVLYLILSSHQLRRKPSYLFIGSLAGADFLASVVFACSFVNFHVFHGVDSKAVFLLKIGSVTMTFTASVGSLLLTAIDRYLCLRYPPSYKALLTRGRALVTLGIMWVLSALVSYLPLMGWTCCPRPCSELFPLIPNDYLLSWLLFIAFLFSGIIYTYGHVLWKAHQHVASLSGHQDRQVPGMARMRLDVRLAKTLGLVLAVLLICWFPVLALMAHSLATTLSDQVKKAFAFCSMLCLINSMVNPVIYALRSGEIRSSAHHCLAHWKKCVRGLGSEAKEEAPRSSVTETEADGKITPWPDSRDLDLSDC
Test: Radioligand binding assay, [3H]-CP-55,940, HEK cell membranes expressing human CNR2
measure.name: pKi
In simple prose, pKi is minus the logarithm base ten of a concentration in moles per litre.

# annotated cases, reported pKi shown
smiles.string | pKi
CC(C)(C)c1nc(N2CCC(F)(F)C2)c2nn(Cc3ccccc3S(=O)(=O)F)nc2n1 | 6.44
C#Cc1cccc(S(=O)(=O)F)c1Cn1nc2nc(C(C)(C)C)nc(N3CCC(F)(F)C3)c2n1 | 6.38
CC(C)(C)c1nc(N2CC[C@H](O)C2)c2nn(Cc3ccccc3S(=O)(=O)F)nc2n1 | 5.93

Okay, now this compound:
Qu. Give recorded pKi. CC(C)(C)c1nc(N2CCC(F)(F)C2)c2nn(Cc3ccccc3CS(=O)(=O)F)nc2n1
Ans. 6.20

###

Entries and their pKi
Target: human CB2 receptor (Homo sapiens (Human))
Assay: Radioligand binding assay, [3H]-CP-55,940, HEK cell membranes expressing human CNR2
Conditions: membranes of HEK cells expressing human CNR2; 2.6 nM [3H]-CP-55,940; 1 h at 30° C.; read-out: human CB2 Ki
In simple prose, pKi is minus the logarithm base ten of a concentration in moles per litre.

smiles.string | pKi
CC(C)(C)c1nc(N2CC[C@H](O)C2)c2nn(Cc3ccccc3CN=C=S)nc2n1 | 6.28
CC(C)(C)c1nc(N2CCC(F)(F)C2)c2nn(Cc3ccccc3CN=C=S)nc2n1 | 6.68

Qu. Give recorded pKi. CC(C)(C)c1nc(N2CCC(F)(F)C2)c2nn(Cc3ccccc3N=C=S)nc2n1
Ans. 6.34
